# Tested on: CCRF-CEM
# method_description: NCI tumour cell line growth inhibition, 48 h
Activity calls are given as the source filed them. Cut-off read from the data, not from the text of the source: active = GI50 up to about 1.1 µM and inactive = higher.
Listed here are compounds together with their documented GI50.

Completed entries (count: 10):
- compound: "CCOC(=O)/C=C(/N=P(c1ccccc1)(c1ccccc1)c1ccccc1)C(F)(F)F"
  GI50: "> 10 µM (inactive)"
- compound: "C1CN(c2nnc(N3CCC3)nn2)C1"
  GI50: "> 100 µM (inactive)"
- compound: "CC(=O)O[C@H]1CCC2[C@@H]3CCC4Nc5oncc5C[C@]4(C)C3CC[C@@]21C (some centres not stated)"
  GI50: "3.67 µM (inactive)"
- compound: "C/C(=N\\N(C)C)C(CN(C)C)C(c1ccccc1)c1c(O)c2ccccc2oc1=O (configuration not stated)"
  GI50: "> 100 µM (inactive)"
- compound: "C/C=C(/C)C(=O)O[C@@H]1CCN2CC[C@H](COC(=O)/C(=C/C)CO)C12 (some centres not stated)"
  GI50: "37.7 µM (inactive)"
- compound: "O=C(/N=C1\\SCCN1C(=O)C(C(F)(F)F)C(F)(F)F)C(C(F)(F)F)C(F)(F)F"
  GI50: "> 100 µM (inactive)"
- compound: "COC(=O)[C@@H](O)[C@]1(C(=O)OC)C2O[C@@H](OC)[C@@H]1CCCCCC[C@H]2O"
  GI50: "> 100 µM (inactive)"
- compound: "CSC1=C(SC)C(=O)c2cn(C)c(=O)cc2C1=O"
  GI50: "0.245 µM (active)"
- compound: "COc1ccc(Cc2c(=O)[nH]nc3ccccc23)cc1"
  GI50: "> 100 µM (inactive)"
- compound: "O=C1c2ccccc2C(=O)N1CCc1ncc[nH]1"
  GI50: "> 100 µM (inactive)"

# returns recorded GI50 (system: CCRF-CEM) for CCCC(=O)Nc1cc(/C=C/C(=O)N2CC(CCl)c3c2cc(O)c2[nH]cc(C)c32)n(C)c1 (configuration not stated)
< 2.5e-05 µM (active)

# returns recorded GI50 (system: CCRF-CEM) for `O=C(NCC(O)CNC(=O)C(F)(F)F)C(F)(F)F`
> 100 µM (inactive)

---

# Tested on: HCC 2998
# method_description: NCI tumour cell line growth inhibition, 48 h
The source made the active and inactive calls. Cut-off read from the data, not from the text of the source: active = GI50 up to about 1.1 µM and inactive = higher.
Listed here are compounds together with their documented GI50.

Completed entries (count: 4):
- compound: "Oc1nc2c(c(-c3ccccc3Cl)n1)COC/C2=C\\c1ccccc1Cl"
  GI50: "> 100 µM (inactive)"
- compound: "C/C=C(/C)C(=O)O[C@@H]1CCN2CC[C@H](COC(=O)/C(=C/C)CO)C12 (stereo not given in full)"
  GI50: "20.7 µM (inactive)"
- compound: "CN(C)c1nc(N)nc(CCl)n1"
  GI50: "45.6 µM (inactive)"
- compound: "CCOC(=O)c1cc2c(OC(C)=O)ccc(OC(C)=O)c2s1"
  GI50: "8.97 µM (inactive)"

// moving on: another record for GI50
Sample Cc1cc(O)c2c3c(ccc2c1)C(=O)c1c(O)cccc1C3=O [TETRANGULOL] — what was its GI50?
5.15 µM (inactive)

---

# System: SF-295
# method_description: NCI tumour cell line growth inhibition, 48 h
Active and inactive are the calls of the source. Rule as the data show it: active = GI50 up to about 1.1 µM and inactive = higher.
Listed here are compounds together with their documented GI50.

- compound: "Nc1nc(Cl)c(Cl)c(NCC2(O)CCC2)n1"
  GI50: "43.9 µM (inactive)"
- compound: "[N-]=[N+]=CC(=O)CCC(N)C(=O)O (centres undefined)"
  GI50: "1.28 µM (inactive)"
- compound: "COc1ccc2c(c1)[C@@]13CCN4CC5=CCO[C@H]6CC(=O)N2[C@H]1[C@H]6[C@H]5C[C@H]43"
  GI50: "70 µM (inactive)"
- compound: "CSC1=C(SC)C(=O)c2cn(C)c(=O)cc2C1=O"
  GI50: "13 µM (inactive)"
- compound: "Nc1ncnc2c1nnn2C1OC(CO)C(O)C1O (centres undefined)"
  GI50: "30.1 µM (inactive)"

Sample `COC1(OC)CCN(Cc2ccccc2)C1=O` — what was its GI50?
23.4 µM (inactive)

Sample COC(=O)C(Cc1c[nH]c2ccccc12)NC1=Nc2ccncc2S(=O)(=O)N1c1cccc(OC(C)C)c1 (centres undefined) — what was its GI50?
42 µM (inactive)

Sample `CC(=O)Nc1ccc2oc(=O)c3ccccc3c2c1` — what was its GI50?
> 100 µM (inactive)

Sample Cc1ccccc1SC(/C=C/NNC1=NN=C(c2ccccc2)C(c2ccccc2)N1)c1ccccc1 (centres undefined) — what was its GI50?
18.8 µM (inactive)

---

# System: Malme-3M
# method_description: NCI tumour cell line growth inhibition, 48 h
Calls of active or inactive are those of the source. Rule as the data show it: active = GI50 up to about 1.1 µM and inactive = higher.
measure_name: GI50

Completed entries (count: 2):
- compound: "c1ccc2c(c1)c(N1CCCCC1)cc1nc3c(cc(N4CCCCC4)c4ccccc43)nc12"
  readout_value: "> 100 µM (inactive)"
- compound: "S=c1sc2c(n1-c1ccccc1)N=CNC2S (stereo unspecified)"
  readout_value: "44.8 µM (inactive)"

Sample OCC1c2ccccc2-n2nc(-c3ccccc3)c(O)c21 (stereo unspecified) — what was its GI50?
17.1 µM (inactive)

Sample C=CCC1CC(n2cc(C)c(=O)[nH]c2=O)OC1CO[Si](C)(C)C(C)(C)C (stereo unspecified) — what was its GI50?
10.5 µM (inactive)

Sample O=C1OC(C2=CC(=O)c3ccccc3C2=O)C(Cl)=C1Cl (stereo unspecified) — what was its GI50?
26.5 µM (inactive)

---

# Test system: U-251
# method_description: NCI tumour cell line growth inhibition, 48 h
Activity calls are given as the source filed them. No stated cut-off is given here; in the data, active = GI50 up to about 1.1 µM and inactive = higher.
The reply should name one outcome from TRUE = active, FALSE = inactive

Example results:
- molecule: "C#C[C@]1(O)[C@@H](CO)O[C@@H](n2ccc(N)nc2=O)[C@@H]1O"
  target_desc: "U-251"
  label_value: "TRUE"
- molecule: "CC(=O)OCC1OC(SC2=N/C(=C\\c3cc4c(=O)c5ccccc5sc4s3)C(=O)N2c2ccccc2)C(OC(C)=O)C(OC(C)=O)C1OC(C)=O (stereo not drawn)"
  target_desc: "U-251"
  label_value: "FALSE"
- molecule: "COc1cc2c(cc1O)NC(=O)[C@@H]1C[C@@H](O)CN1C2=O"
  target_desc: "U-251"
  label_value: "FALSE"
- molecule: "Cc1ccc(S(=O)(=O)NC(CCC(=O)NN)C(=O)NN)cc1 (stereo not drawn)"
  target_desc: "U-251"
  label_value: "FALSE"
- molecule: "Cc1ccc2c(c1)nc1n2C(c2c(F)cccc2F)SC1 (stereo not drawn)"
  target_desc: "U-251"
  label_value: "FALSE"
- molecule: "Nc1nc(NNc2ccccc2F)cc(=O)[nH]1"
  target_desc: "U-251"
  label_value: "FALSE"

Any idea what this test logged for `COc1cc(C=O)cc(O)c1O` ?
FALSE

Any idea what this test logged for `c1ccc2[nH]c3nc4ccccc4c-3cc2c1` ?
TRUE

Any idea what this test logged for `N#Cc1c(-c2ccc([N+](=O)[O-])cc2)cc(-c2ccc(Nc3ccnc4cc(C(F)(F)F)ccc34)cc2)[nH]c1=O` ?
FALSE

---

Listed here are compounds together with their documented GI50.
# Tested on: IGROV-1
# method_description: NCI tumour cell line growth inhibition, 48 h
Active and inactive are the calls of the source. No stated cut-off is given here; in the data, active = GI50 up to about 1.1 µM and inactive = higher.

Completed entries (count: 3):
- compound: "CN(C)c1ccc(C(Cc2ccccc2)C2NC(=S)NC2=O)cc1 (stereo not given)"
  target_desc: "IGROV-1"
  GI50: "> 100 µM (inactive)"
- compound: "Oc1c(Br)cc(/C=C/c2cccc(/C=C/c3cc(Br)c(O)c(Br)c3)n2)cc1Br"
  target_desc: "IGROV-1"
  GI50: "13.4 µM (inactive)"
- compound: "CN(C)c1cccc(-c2cc(=S)c3cc4c(cc3[nH]2)OCO4)c1"
  target_desc: "IGROV-1"
  GI50: "6.38 µM (inactive)"

Sample `COc1ccc2c(c1)[C@@]13CCN4CC5=CCO[C@H]6CC(=O)N2[C@H]1[C@H]6[C@H]5C[C@H]43` — what was its GI50?
34.9 µM (inactive)

Sample `N#Cc1c(NN)nc(NN)c(C#N)c1-c1ccccc1` — what was its GI50?
> 100 µM (inactive)

---

# Tested on: HOP-62
# method_description: NCI tumour cell line growth inhibition, 48 h
The source made the active and inactive calls. Cut-off read from the data, not from the text of the source: active = GI50 up to about 1.1 µM and inactive = higher.
Listed here are molecules together with their documented GI50.

# returns recorded GI50 (system: HOP-62) for `c1ccc(-c2nnc(CCCCCCCCc3nnc(-c4ccccc4)o3)o2)cc1`
97.3 µM (inactive)

# returns recorded GI50 (system: HOP-62) for COC(=O)[C@@H]1C=C[C@H](OC2OC(COC(C)=O)C(OC(C)=O)C(OC(C)=O)C2OC(C)=O)n2c(=O)c3ccccc3c(=O)n21 (some centres not stated)
17.9 µM (inactive)

# returns recorded GI50 (system: HOP-62) for CSCCC(NOC(=O)Cc1ccccc1)P(=O)(O)c1ccccc1 (configuration not stated)
> 100 µM (inactive)

# returns recorded GI50 (system: HOP-62) for CCOC(=O)C(NC(=O)c1cccc(Cl)c1)(Nc1ccc(S(=O)(=O)Nc2cc(C)nc(C)n2)cc1)C(F)(F)F (configuration not stated)
> 100 µM (inactive)

All values here come from ChEMBL document CHEMBL1201862.
